For each entry below, report its IC50 value.
system: HepG2; test: Antiproliferative activity against human HepG2 cells assessed as inhibition of cell viability measured after 120 hrs CellTiter-Glo assay; format: functional, cell-based; details: HepG2, 120 h
Give bare numbers, in µM.

The following compounds have reported results that may help.
### Prompt # input compound: Cn1ncc(-c2ccc3c(=O)[nH]nc(CN)c3c2)c1-c1c(F)c(Cl)cc(OC2CC2)c1C#N ; wanted: its IC50
### Response 6.6

### Prompt Requested read-out: IC50. Entry: Cn1ncc(-c2cc([C@H]3CCCO3)c3c(=O)[nH]nc(CN)c3c2)c1-c1sc2ccccc2c1C#N
### Response 0.29

### Prompt For the compound COCc1cc(-c2cnn(C)c2-c2sc3ccccc3c2C#N)cc2c(CN)n[nH]c(=O)c12 , what IC50 is on record?
### Response 0.49

Consider now this further compound.
### Prompt Reported IC50, compound Cn1ncc(-c2ccc3c(=O)[nH]nc(CN)c3c2)c1-c1sc2ccccc2c1C#N : ____
### Response 18.3
